I'd appreciate it if you could supply response of 2nd mAb values for the items below.
# ASSAY_TARGET: T1, ZIKV-VLP (Native Antigen Inc.) (Zika virus)
# T1 construct: also called Zika VLP; ZVLP
# ASSAY_COMMENT: BLI binning on ZIKV-VLP; 1st mAb: 270-12
Answer as a number with no unit attached.

get_value(item= anti-ZIKV antibody 242-3 (antibody, V domains shown, also called clone 242-3) VH: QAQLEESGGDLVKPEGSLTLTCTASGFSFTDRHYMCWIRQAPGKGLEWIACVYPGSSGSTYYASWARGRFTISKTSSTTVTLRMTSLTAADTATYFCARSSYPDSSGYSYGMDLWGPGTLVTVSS VL: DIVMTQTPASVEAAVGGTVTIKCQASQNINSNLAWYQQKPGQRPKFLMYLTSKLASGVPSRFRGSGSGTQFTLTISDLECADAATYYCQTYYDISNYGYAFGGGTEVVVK , readout=response of 2nd mAb) returns 0.04

get_value(item= anti-ZIKV antibody 306-2 (antibody, V domains shown) VH: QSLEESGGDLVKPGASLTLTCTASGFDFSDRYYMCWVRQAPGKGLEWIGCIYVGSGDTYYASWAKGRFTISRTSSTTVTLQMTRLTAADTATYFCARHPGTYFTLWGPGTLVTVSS VL: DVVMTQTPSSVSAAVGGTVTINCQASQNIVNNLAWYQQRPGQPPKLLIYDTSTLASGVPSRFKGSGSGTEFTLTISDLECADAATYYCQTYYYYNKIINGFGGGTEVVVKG , readout=response of 2nd mAb) returns -0.01

get_value(item= anti-ZIKV antibody 11-3 (antibody, V domains shown, also called clone 11-3) VH: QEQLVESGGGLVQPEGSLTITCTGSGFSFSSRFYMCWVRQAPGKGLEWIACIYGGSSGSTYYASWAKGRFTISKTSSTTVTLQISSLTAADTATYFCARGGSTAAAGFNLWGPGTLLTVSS VL: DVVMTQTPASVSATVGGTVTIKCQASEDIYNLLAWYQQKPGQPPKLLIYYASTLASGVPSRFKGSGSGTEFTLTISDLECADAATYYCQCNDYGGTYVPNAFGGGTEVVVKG , readout=response of 2nd mAb) returns 0.38

get_value(item= anti-ZIKV antibody 78-2 (antibody, V domains shown, also called clone 78-2) VH: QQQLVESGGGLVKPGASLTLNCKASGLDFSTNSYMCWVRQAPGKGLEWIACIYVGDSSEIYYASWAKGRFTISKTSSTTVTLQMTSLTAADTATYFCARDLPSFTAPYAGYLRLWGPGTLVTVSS VL: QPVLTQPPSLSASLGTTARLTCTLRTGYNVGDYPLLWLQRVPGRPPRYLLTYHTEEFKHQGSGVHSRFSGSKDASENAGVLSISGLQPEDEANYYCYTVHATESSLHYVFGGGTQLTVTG , readout=response of 2nd mAb) returns 0.28

get_value(item= anti-ZIKV antibody 289-3 (antibody, V domains shown, also called clone 289-3; subclone 289-3) VH: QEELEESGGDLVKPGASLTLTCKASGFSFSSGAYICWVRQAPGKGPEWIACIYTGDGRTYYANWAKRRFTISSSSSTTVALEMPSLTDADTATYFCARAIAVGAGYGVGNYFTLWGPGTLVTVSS VL: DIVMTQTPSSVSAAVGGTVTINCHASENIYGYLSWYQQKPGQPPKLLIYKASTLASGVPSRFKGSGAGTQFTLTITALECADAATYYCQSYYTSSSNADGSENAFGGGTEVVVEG , readout=response of 2nd mAb) returns 0.02

get_value(item= anti-ZIKV antibody 270-12 (antibody, V domains shown, also called clone 270-12) VH: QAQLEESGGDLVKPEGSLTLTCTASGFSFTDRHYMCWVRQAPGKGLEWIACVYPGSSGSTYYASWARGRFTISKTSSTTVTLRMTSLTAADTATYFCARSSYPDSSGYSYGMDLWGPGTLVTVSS VL: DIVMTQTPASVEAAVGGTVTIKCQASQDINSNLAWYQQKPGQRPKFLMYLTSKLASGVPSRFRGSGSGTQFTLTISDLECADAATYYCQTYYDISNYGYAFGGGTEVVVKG , readout=response of 2nd mAb) returns 0.02
